B1: HDV Ribozyme (parent)
chain: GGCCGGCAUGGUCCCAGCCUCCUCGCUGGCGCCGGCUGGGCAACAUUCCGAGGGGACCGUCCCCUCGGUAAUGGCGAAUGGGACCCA

# Variants of: B1
# experiment-notes: self-cleavage, relative activity (ratio to wild type); higher = more cleavage; co-transcriptional
variants and their reported self-cleavage
Field format: numeric only.

Here is how some variants turned out for self-cleavage.
chain	self-cleavage
GGCCGGCAUGGUCCCAGCCUCCUCGCUGGCGCCGGCUGGGCAACAUUCCGAAGGGACCCUCCCCUCGGUAAUGGCGAAUGGGACCCA	1.05
GGCCGGGAUGGUCCCAGCUUCCUCGCUGGCGCCGGCUGGGCAACAUUCCGAGGGGACCGUCCCCUCGGUAAUGGCGAAUGGGACCCA	0
GGCCGGCAUGGUCCCACCCUCCUCGCUGGCGCCGGCUGGGCAACAUUCCGAGGGUACCGUCCCCUCGGUAAUGGCGAAUGGGACCCA	0.208
GGCCGGCAUGGUCACAGCCUCCUCGCUGGCGCCGGCUGGGCAACAUUCCGAGGGGACCGUCCCCUCGGUAAUGGCGAAUGGAACCCA	0.415
GGCCGGCAUGGUCCCAUCCUCCACGCUGGCGCCGGCUGGGCAACAUUCCGAGGGGACCGUCCCCUCGGUAAUGGCGAAUGGGACCCA	0.397
GGCCGGCAUUGUCCCAGCCUCCUCGCUGGCGCCGGCUGGGCAACAUUCCGAGGGGACCGUACCCUCGGUAAUGGCGAAUGGGACCCA	0.665
GGCCGGCAUGGUCCCAGCCUCCUCGCUGGCGCCGGCUGGACAACAUUCCGAGGGGACCGUCCCCUCGGUAAUGGCGAAUGGAACCCA	0.358
GGCCGGCAUGGUCCCAGCCUCCUCGCUGGCGCCGGCUGGGCAACAUUCCGAGGGGACCUUCCCCUCGGUAAUCGCGAAUGGGACCCA	0.614
GGCCUGCAUGGUCCCAGCCUCCUCGCCGGCGCCGGCUGGGCAACAUUCCGAGGGGACCGUCCCCUCGGUAAUGGCGAAUGGGACCCA	0.0978
GGCCGGCAUGGUCCCAGCCUCCUCGCUGGCGCCGGCUGGGCAACAGUCCGAGGGGACCGUCCCCUCGGUAAUGGCGAAUGAGACCCA	0.222

Can you look up the measured self-cleavage of GGCCGGCAUGGUCCCAGCCUCCUCGCUGGCGCCGGCUGGGCAACAUUCCGAGGCCACCGUCCCCUCGGUAAUGGCGAAUGGGACCCA for me?
0.981

And GGCCGGCAUGGUCCCAGCCUACUCGGUGGCGCCGGCUGGGCAACAUUCCGAGGGGACCGUCCCCUCGGUAAUGGCGAAUGGGACCCA ?
0.266

Also need GGCCGGCAUGGUCCCAGCCCCCUCGCUGGCGCCGGCUGGGCAACAUUCUGAGGGGACCGUCCCCUCGGUAAUGGCGAAUGGGACCCA , thanks.
0.192

// next record GGCCGGCAUGGUCCCAGCCUCCUCGCUGGCGCCGGCUGGGCAACAUUCGGAGGGGACCGUCCCCUCGGUAAUGGCGAAUGCGACCCA
0.196
